Molecular target: pooled human IgG (human IgG1,2,3 and 4)
property: Enzyme Activity Endpoint Assay: scIgG
Kindly report the value followed by its unit.

>>> measured_value("PRT-170 (protein) MANQEIRYSEVTPYHVTSVWTKGVTPPTDFIKGEDVFHAPYKAHQGWYDITKTFNGKDDLLCGAATAGNMLHWWFDQNKDQIKRYLEEHPEKQKINFNGEQMFDVKEAIDTKNSQLDSKLFEYFKEKAFPYLSTKHLGVFPDHVIDMFINGYRLSLTNHGPTPVKEGSKDPRGGIFDAVFTRGDQSKLLTSRHDFKEKNLKEISDLIKKELTEGKALGLSHTYANVRINHVINLWGADFDSNGNLKAIYVTDSDSNASIGMKKYFVGVNSAGKVAISAKEIKEDNIGAQVLGLFTLSTGQDSWNQTN")
"0 ng/µL"
>>> measured_value("PRT-188 (protein) MANQEIRYSEVTPYHVTSVWTKGVTPPANFRKIVDGNIAYYAAPYVANQGWYDITKTFNGKDDLLCGAATAGNMLHWWFDQNKDQIKRYLEEHPEKQKINFNGEQMFDVKELNTYESDHGYRDKSKLFEYFKEKAFPYLSTKHLGVFPDHVIDMFINGYRLSLTNHGPTPVKEGSKDPRGGIFDAVFTRGDQSKLLTSRHDFKEKNLKEISDLIKKELTEGKALGLSHTYANVRINHVINLWGADFDSNGNLKAIYVTDSDDKKLTIGDERIGMKKYFVGVNSAGKVAISAKEIKEDNIGAQVLGLFTLSTGQDSWNQTN")
"25 ng/µL"
>>> measured_value("PRT-190 (protein) MANQEIRYSEVTPYHVTSVWTKGVTPPDHDFRKIVDGEDVFHAPYVANQGWYDITKTFNGKDDLLCGAATAGNMLHWWFDQNKDQIKRYLEEHPEKQKINFNGEQMFDVKEAIDTKNHQLDSKLFEYFKEKAFPYLSTKHLGVFPDHVIDMFINGYRLSLTNHGPTPVKEGSKDPRGGIFDAVFTRGDQSKLLTSRHDFKEKNLKEISDLIKKELTEGKALGLSHTYANVRINHVINLWGADFDSNGNLKAIYVTDSDSNASIGMKKYFVGVNSAGKVAISAKEIKEDNIGAQVLGLFTLSTGQDSWNQTN")
"145 ng/µL"

Query: Any idea what Enzyme Activity Endpoint Assay: scIgG was measured for PRT-251 (protein) MVTSVWTKGVTPPTNFTYGEDVLHAPYVANQGWYDITKTFNGKDDLLCGAATAGNMLHWWFDQNKEQIENYLKKHPEKQKINFNGEQMFDVKEAIDTKDSQLDSKLFEYFLEKAFPNLSTKHLGVFPDHVIDMFINGYRLSLLNHGPTPVKRGSKDPRGGIFDAVFTRGDQSKLLTNRHDFKEKTLKEISDLIKQELTEGKALGISHTYANVRINHVINLWGADFDAEGNLEAIAVTDSDSNASIGMKKYFVGVNSSGKVAISAKEIEEDNIGAQVLGLFTLSTGQDIWNQTN ?
Result: 0 ng/µL
